test system: MOLT-4 leukemia; assay: NCI-60 one-dose screen, 48 h; settings: 10 µM unless noted
This is part of a sample that, as a whole, favours compounds with a hit. Of some 83,000 tested, about 20% had one in any assay. Calls of active or inactive are those of the source. Rule for the calls: active = growth percent below 10; inactive = the rest.
Could you please pick one outcome from this set? class 1 for active, class 0 for inactive

Solved cases below.
compound: CC1SC(c2ccc(OCc3ccccc3)cc2)N(NC(=O)C(O)(c2ccccc2)c2ccccc2)C1=O (stereo unspecified)
category: class 0

compound: COc1cc(/C=N/NC(=O)Cn2c(C(C)C)nc3ccccc32)ccc1O
category: class 0

compound: CC1(C)OC2C(CO[Si](C)(C)C(C)(C)C)OC(n3c(I)c(C#C[Si](C)(C)C)c(=O)[nH]c3=O)C2O1 (stereo unspecified)
category: class 0

compound: C=CCn1c(C)nc2cc(Nc3nc(N4CCCC4)nc4ccccc34)ccc21
category: class 0

compound: N=c1sc(Cc2ccc(Cl)cc2)cn1CC(=O)c1ccc(F)cc1
category: class 0

compound: CCOC(=O)/C=C/c1cc2cc(-c3csc4ccccc34)ccc2[nH]1
category: class 0

compound: Cc1ccc2[nH]c(=O)c3c(c2c1)OC(N)=C(C#N)C31c2cc(Br)ccc2-c2ccc(Br)cc21
category: class 0

compound: C[C@]12CC[C@@H]3c4cc(OC(F)F)c(O)cc4CC[C@H]3[C@@H]1CC[C@@H]2OS(N)(=O)=O
category: class 0

compound: c1ccc2cc3nc4cc5ccccc5cc4nc3cc2c1
category: class 0

compound: COc1ccc(C(=O)Nn2c(NCC(=O)N3c4ccccc4Sc4ccccc43)nnc2-c2ccc(O)cc2)cc1
category: class 0

query: Recorded test call requested for Cc1ccc(NS(=O)(=O)c2ccc3c(c2)C2OCCC2C(c2ccc(C(=O)C(C)C)cc2)N3)cc1C (stereo unspecified)
result: class 0

query: Check the results log: what was the call for N#CCN1C(=O)C2C3=C(CCCC3)SC2N=C1CN1CCCC1 (stereo unspecified) ?
result: class 0

query: Recorded call for "COc1cccc(-c2nc3sccn3c2/C=C/C(=O)c2ccc(C(F)(F)F)cc2)c1" ?
result: class 0
